# Test system: Streptococcus pneumoniae
# assay-procedure: Antibacterial activity against macrolide-resistant Streptococcus pneumoniae 2686 harboring mutation in L4 ribosomal protein after overnight incubation by agar dilution method
# Type: functional
Reported values of MIC for individual entries
Report the figure in µg/mL without appending any unit label.

entry-smiles	observed-value
CC[C@H]1OC(=O)[C@H](C)C(=O)[C@H](C)[C@@H](O[C@@H]2O[C@H](C)C[C@H](N(C)C)[C@H]2O)[C@](C)(OC)C[C@@H](C)C(=O)[C@H](C)[C@H]2N(CCCCn3cnc(-c4cccnc4)c3)C(=O)O[C@]12C	0.06
CCC[C@@H]1C[C@@H](C(=O)N[C@@H]([C@H]2O[C@H](SC)[C@H](O)[C@@H](O)[C@H]2O)[C@H](C)Cl)N(C)C1	0.03

Query: Requested read-out: MIC. Entry: `CC[C@H]1OC(=O)[C@@](C)(F)C(=O)[C@H](C)[C@@H](O[C@@H]2O[C@H](C)C[C@H](N(C)C)[C@H]2O)[C@](C)(OC)C[C@@H](C)C(=O)[C@H](C)[C@H]2N(CCCCn3cc(-c4cccc(N)c4)nn3)C(=O)O[C@]12C`
Result: 0.03

Query: Same for `CC[C@H]1OC(=O)[C@H](C)[C@@H](O[C@H]2C[C@@](C)(OC)[C@@H](O)[C@H](C)O2)[C@H](C)[C@@H](O[C@@H]2O[C@H](C)C[C@H](N(C)C)[C@H]2O)[C@](C)(OC)C[C@@H](C)C(=O)[C@H](C)[C@@H](O)[C@]1(C)O`
Result: 8
